target: T1, CD3 epsilon homodimer protein (UniProt P07766 23-126); assay: SPR Biacore T200, CD3e homodimer on chip, vs unaltered GLS3000 antibody
T1 construct: also called CD3 (CD3 epsilon)
T1 sequence (P07766 23-126): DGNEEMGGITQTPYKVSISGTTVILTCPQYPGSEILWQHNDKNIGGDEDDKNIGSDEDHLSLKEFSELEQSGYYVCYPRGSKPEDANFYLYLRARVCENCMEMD
Provide the recorded ratio of amounts bound (Z=Y/X) for the entries that follow.

Reported ratio of amounts bound (Z=Y/X) for GLS3000 L33A (antibody, name in Kabat numbering, V domains shown, one-arm IgG as m2) VH: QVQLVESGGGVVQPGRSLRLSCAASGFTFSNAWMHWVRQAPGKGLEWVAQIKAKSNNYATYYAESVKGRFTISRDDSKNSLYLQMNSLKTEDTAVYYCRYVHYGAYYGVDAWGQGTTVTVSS VL: DIVMTQSPLSLPVTPGEPASISCRSSQSLVHSNRNTYAHWYQQKPGQAPRLLIYKVSNRFSGVPDRFSGSGSGTDFTLKISRVEAEDVGVYYCGQGTQVPYTFGQGTKLEIK was 0.85

According to the records, this binder GLS3000 T31E (antibody, name in Kabat numbering, V domains shown, one-arm IgG as m2) VH: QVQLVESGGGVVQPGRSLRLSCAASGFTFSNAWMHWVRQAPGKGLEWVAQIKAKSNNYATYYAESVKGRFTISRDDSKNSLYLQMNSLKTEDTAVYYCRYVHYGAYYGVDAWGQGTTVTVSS VL: DIVMTQSPLSLPVTPGEPASISCRSSQSLVHSNRNEYLHWYQQKPGQAPRLLIYKVSNRFSGVPDRFSGSGSGTDFTLKISRVEAEDVGVYYCGQGTQVPYTFGQGTKLEIK displays ratio of amounts bound (Z=Y/X) of 0.49

// ratio of amounts bound (Z=Y/X) lookup, binder = GLS3000 S27eN (antibody, name in Kabat numbering, V domains shown, one-arm IgG as m2) VH: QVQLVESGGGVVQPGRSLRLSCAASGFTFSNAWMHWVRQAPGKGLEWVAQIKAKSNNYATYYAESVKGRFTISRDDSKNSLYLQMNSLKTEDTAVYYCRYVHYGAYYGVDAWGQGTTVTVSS VL: DIVMTQSPLSLPVTPGEPASISCRSSQSLVHNNRNTYLHWYQQKPGQAPRLLIYKVSNRFSGVPDRFSGSGSGTDFTLKISRVEAEDVGVYYCGQGTQVPYTFGQGTKLEIK , result: 1.16

Record GLS3000 L33D (antibody, name in Kabat numbering, V domains shown, one-arm IgG as m2) VH: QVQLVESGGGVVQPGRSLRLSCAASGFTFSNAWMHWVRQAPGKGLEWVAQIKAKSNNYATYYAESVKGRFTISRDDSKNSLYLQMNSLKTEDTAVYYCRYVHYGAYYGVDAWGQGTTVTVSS VL: DIVMTQSPLSLPVTPGEPASISCRSSQSLVHSNRNTYDHWYQQKPGQAPRLLIYKVSNRFSGVPDRFSGSGSGTDFTLKISRVEAEDVGVYYCGQGTQVPYTFGQGTKLEIK . Reported ratio of amounts bound (Z=Y/X): 0.17

The reported ratio of amounts bound (Z=Y/X) of the binder GLS3000 N28I (antibody, name in Kabat numbering, V domains shown, one-arm IgG as m2) VH: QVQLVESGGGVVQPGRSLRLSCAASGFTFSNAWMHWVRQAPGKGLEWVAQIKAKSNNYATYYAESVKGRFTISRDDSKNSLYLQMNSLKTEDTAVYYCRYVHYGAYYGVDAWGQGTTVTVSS VL: DIVMTQSPLSLPVTPGEPASISCRSSQSLVHSIRNTYLHWYQQKPGQAPRLLIYKVSNRFSGVPDRFSGSGSGTDFTLKISRVEAEDVGVYYCGQGTQVPYTFGQGTKLEIK was 0.44

Entry GLS3000 H34W (antibody, name in Kabat numbering, V domains shown, one-arm IgG as m2) VH: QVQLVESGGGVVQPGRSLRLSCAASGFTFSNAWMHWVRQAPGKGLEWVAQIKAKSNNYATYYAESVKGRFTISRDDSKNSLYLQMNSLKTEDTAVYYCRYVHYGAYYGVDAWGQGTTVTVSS VL: DIVMTQSPLSLPVTPGEPASISCRSSQSLVHSNRNTYLWWYQQKPGQAPRLLIYKVSNRFSGVPDRFSGSGSGTDFTLKISRVEAEDVGVYYCGQGTQVPYTFGQGTKLEIK , ratio of amounts bound (Z=Y/X) reported as 0.24

Lab note: measured ratio of amounts bound (Z=Y/X) of GLS3000 H27dE (antibody, name in Kabat numbering, V domains shown, one-arm IgG as m2) VH: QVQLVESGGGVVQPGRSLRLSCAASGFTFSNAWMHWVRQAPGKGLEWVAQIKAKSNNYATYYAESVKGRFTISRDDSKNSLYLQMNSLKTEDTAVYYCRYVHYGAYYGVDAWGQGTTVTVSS VL: DIVMTQSPLSLPVTPGEPASISCRSSQSLVESNRNTYLHWYQQKPGQAPRLLIYKVSNRFSGVPDRFSGSGSGTDFTLKISRVEAEDVGVYYCGQGTQVPYTFGQGTKLEIK was 0.23

Given item GLS3000 L27bW (antibody, name in Kabat numbering, V domains shown, one-arm IgG as m2) VH: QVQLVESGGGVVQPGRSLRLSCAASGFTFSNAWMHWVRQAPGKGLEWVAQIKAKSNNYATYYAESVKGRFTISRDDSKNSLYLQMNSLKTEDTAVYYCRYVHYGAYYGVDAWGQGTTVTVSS VL: DIVMTQSPLSLPVTPGEPASISCRSSQSWVHSNRNTYLHWYQQKPGQAPRLLIYKVSNRFSGVPDRFSGSGSGTDFTLKISRVEAEDVGVYYCGQGTQVPYTFGQGTKLEIK , the value recorded as its ratio of amounts bound (Z=Y/X) is 0.26

Value of ratio of amounts bound (Z=Y/X) reported for the binder GLS3000 G89N (antibody, name in Kabat numbering, V domains shown, one-arm IgG as m2) VH: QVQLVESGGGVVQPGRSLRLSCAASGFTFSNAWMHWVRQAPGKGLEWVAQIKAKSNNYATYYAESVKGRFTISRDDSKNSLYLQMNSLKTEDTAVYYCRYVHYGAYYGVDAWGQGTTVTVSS VL: DIVMTQSPLSLPVTPGEPASISCRSSQSLVHSNRNTYLHWYQQKPGQAPRLLIYKVSNRFSGVPDRFSGSGSGTDFTLKISRVEAEDVGVYYCNQGTQVPYTFGQGTKLEIK is 0.8

The value of ratio of amounts bound (Z=Y/X) measured for the binder GLS3000 S56K (antibody, name in Kabat numbering, V domains shown, one-arm IgG as m2) VH: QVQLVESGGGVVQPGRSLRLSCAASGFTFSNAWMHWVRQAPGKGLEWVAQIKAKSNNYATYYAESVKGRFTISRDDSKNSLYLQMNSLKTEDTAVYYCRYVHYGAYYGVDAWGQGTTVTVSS VL: DIVMTQSPLSLPVTPGEPASISCRSSQSLVHSNRNTYLHWYQQKPGQAPRLLIYKVSNRFKGVPDRFSGSGSGTDFTLKISRVEAEDVGVYYCGQGTQVPYTFGQGTKLEIK turned out to be 1.46
